Data origin: patent US20120214822A1

- TESTED TARGET: human active recombinant p38α-6His tagged (Homo sapiens, UniProt Q16539)
- Sequence (Q16539 whole entry): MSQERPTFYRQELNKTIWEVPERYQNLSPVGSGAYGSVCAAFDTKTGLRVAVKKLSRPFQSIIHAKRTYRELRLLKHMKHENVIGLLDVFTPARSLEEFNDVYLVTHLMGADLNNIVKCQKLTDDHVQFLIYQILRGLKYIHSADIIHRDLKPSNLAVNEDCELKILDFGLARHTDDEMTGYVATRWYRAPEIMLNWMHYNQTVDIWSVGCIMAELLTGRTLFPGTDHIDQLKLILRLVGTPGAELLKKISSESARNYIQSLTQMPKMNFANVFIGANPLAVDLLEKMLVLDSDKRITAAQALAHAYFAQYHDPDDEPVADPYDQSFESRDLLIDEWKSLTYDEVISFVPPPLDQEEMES
- EXPERIMENTAL PROTOCOL: P38 Alpha Enzyme Assay (AlphaScreen, biotinylated-ATF2 substrate)
- Type: biochemical
- STUDY CONDITIONS: p38 alpha enzyme inhibition; means of replicate determinations; 4 h pre-incubation at 37° C.; SD of assay 0.2-0.3 log units
MEASUREMENT KIND: pIC50

# COMPOUND, pIC50
records = [
    ("Cc1ccc(C(=O)NC2CC2)cc1-n1ccnc(N2CCOC(c3ccccc3)C2)c1=O (stereo not shown) [Example 67]", 6.6),
    ("Cc1ccc(C(=O)NC2CC2)cc1-n1ccnc(N(CCN(C)C)Cc2ccccc2)c1=O [Example 121]", 6),
    ("Cc1ccc(C(=O)NC2CC2)cc1-n1ccnc(NC2(c3cccc(F)c3OCCN)CC2)c1=O [Example 284]", 9.5),
    ("CCNCCOc1ccccc1C1(Nc2nccn(-c3cc(C(=O)NC4CC4)cc(F)c3C)c2=O)CC1 [Example 262]", 10.2),
    ("Cc1c(F)cc(C(=O)NC2CC2)cc1-n1ccnc(NC(C)(C)c2ccccc2OCCNCCO)c1=O [Example 253]", 10.2),
    ("CCc1ccc(C(=O)NC2CC2)cc1-n1ccnc(NC(C)(C)c2ccccc2OCCNC[C@H](C)O)c1=O [Example 289]", 8.9),
    ("COCCNCCOc1ccccc1C1(Nc2nccn(-c3cc(C(=O)NC4CC4)ccc3C)c2=O)CC1 [Example 231]", 9.9),
    ("CNCCOc1ccccc1C(C)(C)Nc1nccn(-c2cc(C(=O)NC3(C)CC3)ccc2C)c1=O [Example 227]", 8.5),
    ("Cc1ccc(C(=O)NC2CC2)cc1-n1ccnc(NC(C)(C)c2ccccc2OCCNC(C)C)c1=O [Example 212]", 9.6),
    ("CNCCOc1ccccc1C(C)(C)Nc1nccn(-c2cc(C(=O)NCCF)ccc2C)c1=O [Example 225]", 8.2),
]

====

- TESTED TARGET: human active recombinant p38α-6His tagged (Homo sapiens, UniProt Q16539)
- EXPERIMENTAL PROTOCOL: P38 Alpha Enzyme Assay (AlphaScreen, biotinylated-ATF2 substrate);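 further: 0.5 nM final p38α, reaction started with ATP and run 45 min at 37 °C, phospho-ATF2 read by antibody-based AlphaScreen, background wells quenched with EDTA before ATP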
- Format: biochemical
- STUDY CONDITIONS: p38 alpha enzyme inhibition; means of replicate determinations; 4 h pre-incubation at 37° C.; SD of assay 0.2-0.3 log units
MEASUREMENT KIND: pIC50

# SMILES CODE, OBSERVED
measured = [
    ("Cc1ccc(C(=O)NC2CC2)cc1-n1ccnc(N[C@@H](c2ccccc2)[C@@H](C)CN2CCC(F)(F)CC2)c1=O", 9),
    ("Cc1ccc(C(=O)NC2CC2)cc1-n1ccnc(N[C@@H](c2ccccc2)[C@@H](C)CN2CCC(C(F)(F)F)CC2)c1=O", 9),
    ("Cc1ccc(C(=O)NC2CC2)cc1-n1ccnc(NC(C)(C)c2ccccc2O)c1=O", 8.9),
]
